List of Percent Control values.
Tested on: ERK8
Construct: gene MAPK15
Conditions: Compound Concentration (nM):1000;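 note: KINOMEscan scanMAX binding as percent activity remaining versus control; lower means stronger binding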
observed.property: Percent Control

1. Cl.O=C(O[C@H]1CN[C@H](C#Cc2cc3ncnc(Nc4ccc5c(cnn5Cc5ccccc5)c4)c3s2)C1)N1CCOCC1 [GSK200398A] :: 90%
2. COc1cc(C=NNc2ncnc3c2cnn3-c2ccccc2)ccc1O [GW513184X] :: 22%
3. COc1cc(N2CCN(C(C)C)CC2)ccc1Nc1nc(Nc2ccc(F)cc2C(=O)NC[C@@H](O)CO)c2cc[nH]c2n1 [GSK1392956A] :: 100%
4. COc1ccc(COc2ccc(Cc3cnc(N)nc3N)cc2OC)cc1 [GW632580X] :: 100%

====

System: PIK3CA(E545K)
Settings: Compound Concentration (nM):1000
observed.property: Percent Control (%)

1. CC1=C(C(=O)Nc2ccc3[nH]ncc3c2)C(c2ccc3ccccc3c2)CC(=O)N1 (centres unmarked) [GSK270822A] :: 88
2. Cl.O=C(Nc1ccc(Oc2ccc3[nH]c(NC(=O)c4ccco4)nc3c2)cc1)Nc1cc(C(F)(F)F)ccc1F [GW683134A] :: 100
3. NS(=O)(=O)c1ccc(Nc2ncc(-c3ccccc3)o2)cc1 [GW572399X] :: 100
4. C/C(Nc1ccc(S(N)(=O)=O)cc1)=C1/C(=O)Nc2ccccc21 [GW335962X] :: 100
5. Cc1cc(O)cc(C)c1/C=C/c1cncc(C(N)=O)c1 [GW435821X] :: 100
6. COc1cc2ncn(-c3cc(O[C@H](C)c4ccccc4Cl)c(C(N)=O)s3)c2cc1OC [GSK237701A] :: 51
7. Cl.O=C(O[C@H]1CN[C@H](C#Cc2cc3ncnc(Nc4ccc5c(cnn5Cc5ccccc5)c4)c3s2)C1)N1CCOCC1 [GSK200398A] :: 85
8. CCS(=O)(=O)c1ccc(OC)c(Nc2ncc(-c3cccc(OC)c3)o2)c1 [GW580509X] :: 100

====

List of Percent Control values.
Tested on: MRCKB
Construct: gene CDC42BPB
Settings: Compound Concentration (nM):1000
observed.property: Percent Control (%)

1) CCS(=O)(=O)c1ccc(OC)c(Nc2ncc(-c3cccc(OC)c3)o2)c1 [GW580509X] :: 100
2) NS(=O)(=O)c1ccc(N/N=C2\C(=O)Nc3ccc(-c4cnco4)cc32)cc1 :: 98
3) CC1=C(C(=O)Nc2ccc3[nH]ncc3c2)C(c2ccc3ccccc3c2)CC(=O)N1 (stereo not drawn) [GSK270822A] :: 85
4) CN(C)CCNC(=O)Nc1ccc(N(C)c2ccnc(Nc3ccc(CS(C)(=O)=O)cc3)n2)cc1.Cl [GW830900A] :: 96
5) COc1ccc2[nH]c3c4[nH]c5ccc(OC)cc5c4c4c(c3c2c1)C(=O)NC4=O [GW296115X] :: 89
6) COc1cc2ncnc(Nc3ccc4c(cnn4Cc4ccccc4)c3)c2cc1OC.Cl [GW282449A] :: 100
7) Cl.c1ccc(Cc2nc3ccc(Nc4ncnc5ccccc45)cc3[nH]2)cc1 [GR269666A] :: 100
8) CN1CCN(C(=O)c2ccc(NC(=O)Nc3ccc(N(C)c4ccnc(Nc5ccc(CS(C)(=O)=O)cc5)n4)cc3)cc2)CC1.Cl [GW830263A] :: 86
9) COc1cc(C)c(N(C)C(=O)CN(C)C)cc1Nc1nc(Nc2cccc(F)c2C(N)=O)c2cc[nH]c2n1 :: 94
10) C[C@@H](Oc1cc(-n2cnc3ccc(OC4CCN(C)CC4)cc32)sc1C(N)=O)c1ccccc1Cl [GSK579289A] :: 88
11) COc1ccc2c(-c3ccnc(Nc4cccc(OC(F)(F)F)c4)n3)cnn2n1 [GW810372X] :: 99
12) CC(C)COC(=O)c1ccc2c(c1)/C(=C/Nc1ccc(S(N)(=O)=O)cc1)C(=O)N2 [GW416981X] :: 100
13) CCn1c(-c2nonc2N)nc2c(C#CC(C)(C)O)nc(OCCNC)cc21.Cl :: 100
14) Cl.O=C(O[C@H]1CN[C@H](C#Cc2cc3ncnc(Nc4ccc5c(cnn5Cc5ccccc5)c4)c3s2)C1)N1CCOCC1 [GSK200398A] :: 86
15) Cl.O=S1CCN(Cc2ccc(-c3ccc4ncnc(Nc5ccc(OCc6ccccc6)c(F)c5)c4c3)o2)CC1 [GW576924A] :: 100

====

Tested on: ABL1(F317L)-phosphorylated
Conditions: Compound Concentration (nM):1000
List of Percent Control values.
observed.property: Percent Control

1) CCS(=O)(=O)c1ccc(OC)c(Nc2ncc(-c3cccc(F)c3)o2)c1 [GW621970X] :: 5.4%
2) COc1cc(C=NNc2ncnc3c2cnn3-c2ccccc2)ccc1O [GW513184X] :: 91%
3) NS(=O)(=O)c1ccc(N/N=C2\C(=O)Nc3ccc(Cl)cc32)cc1 [GW280670X] :: 100%
4) NS(=O)(=O)c1ccc(N/N=C2\C(=O)Nc3ccc(-c4cnco4)cc32)cc1 [GW276655] :: 74%
5) COc1cccc(-c2c[nH]c3c(N/N=C/c4ccncc4)ncnc23)c1 [GW814408X] :: 19%
6) Cl.c1ccc(Cc2nc3ccc(Nc4ncnc5ccccc45)cc3[nH]2)cc1 [GR269666A] :: 92%
7) COc1cc2ncnc(Nc3ccc4c(cnn4Cc4ccccc4)c3)c2cc1OC.Cl [GW282449A] :: 60%

====

Test system: FLT3(ITD,D835V)
Conditions: Compound Concentration (nM):1000
Values of Percent Control greater than or equal to 0.8% map to Satisfied; values below map to Not satisfied.

1. COc1ccc2c(-c3ccnc(Nc4cccc(OC(F)(F)F)c4)n3)cnn2n1 [GW810372X] :: Satisfied
2. NS(=O)(=O)c1ccc(Nc2ncc(-c3ccccc3)o2)cc1 [GW572399X] :: Satisfied
3. Nc1ncnc2occ(-c3ccc(NC(=O)Nc4cc(C(F)(F)F)ccc4F)cc3)c12 [GW770249X] :: Satisfied
4. CCS(=O)(=O)c1ccc(OC)c(Nc2ncc(-c3cccc(OC)c3)o2)c1 [GW580509X] :: Not satisfied
5. COc1cc(C=NNc2ncnc3c2cnn3-c2ccccc2)ccc1O [GW513184X] :: Satisfied
6. O=C(Nc1n[nH]c2nc(-c3ccc(O)cc3)c(Br)cc12)C1CC1 :: Satisfied
7. CC(C)COC(=O)c1ccc2c(c1)/C(=C/Nc1ccc(S(N)(=O)=O)cc1)C(=O)N2 [GW416981X] :: Not satisfied
8. CC1=C(C(=O)Nc2ccc3[nH]ncc3c2)C(c2ccc(Cl)c(Cl)c2)CC(=O)N1 (stereo not drawn) [GSK299115A] :: Satisfied

====

System: PAK2
Details: Compound Concentration (nM):1000
observed.property: Percent Control (%)

1) NS(=O)(=O)c1ccc(Nc2ncc(-c3ccccc3)o2)cc1 [GW572399X] :: 100
2) NS(=O)(=O)c1ccc(N/N=C2\C(=O)Nc3ccc(-c4cnco4)cc32)cc1 :: 82
3) Cc1cc(O)cc(C)c1/C=C/c1cncc(C(N)=O)c1 [GW435821X] :: 100
4) CCS(=O)(=O)c1ccc(OC)c(Nc2ncc(-c3cccc(OC)c3)o2)c1 [GW580509X] :: 100

====

System: FLT3(K663Q)
Details: Compound Concentration (nM):1000
observed.property: Percent Control (%)

1) Cl.O=C(O[C@H]1CN[C@H](C#Cc2cc3ncnc(Nc4ccc5c(cnn5Cc5ccccc5)c4)c3s2)C1)N1CCOCC1 [GSK200398A] :: 66
2) CCS(=O)(=O)c1ccc(OC)c(Nc2ncc(-c3cccc(OC)c3)o2)c1 [GW580509X] :: 10
3) Cl.O=S1CCN(Cc2ccc(-c3ccc4ncnc(Nc5ccc(OCc6ccccc6)c(F)c5)c4c3)o2)CC1 [GW576924A] :: 93
4) COc1cc(/C=N/Nc2ncnc3[nH]ncc23)ccc1O [GW578748X] :: 75
5) COc1cc2ncn(-c3cc(O[C@H](C)c4ccccc4Cl)c(C(N)=O)s3)c2cc1OC [GSK237701A] :: 6.5

====

System: p38-beta
Construct: gene MAPK11
Details: Compound Concentration (nM):1000
List of Percent Control values.
observed.property: Percent Control (%)

1. CN(C)CCNC(=O)Nc1ccc(N(C)c2ccnc(Nc3ccc(CS(C)(=O)=O)cc3)n2)cc1.Cl [GW830900A] :: 100
2. COc1ccc2cc(-c3c(-c4ccncc4)nc(-c4ccc(S(C)(=O)=O)cc4C)n3C)ccc2c1 :: 79
3. COc1cc(N2CCN(C(C)C)CC2)ccc1Nc1nc(Nc2ccc(F)cc2C(=O)NC[C@@H](O)CO)c2cc[nH]c2n1 [GSK1392956A] :: 100
4. Cl.c1ccc(Cc2nc3ccc(Nc4ncnc5ccccc45)cc3[nH]2)cc1 [GR269666A] :: 100
5. Cl.O=C(Nc1ccc(Oc2ccc3[nH]c(NC(=O)c4ccco4)nc3c2)cc1)Nc1cc(C(F)(F)F)ccc1F [GW683134A] :: 37
6. COc1ccccc1-c1cc(/C=C2\C(=O)Nc3ncc(Br)cc32)cc(Br)c1O [GW442130X] :: 92
7. CCc1ccc(Oc2nccc(-c3c(-c4ccc(F)cc4)ncn3C3CCNCC3)n2)cc1 :: 3
8. NS(=O)(=O)c1ccc(Nc2ncc(-c3ccccc3)o2)cc1 [GW572399X] :: 100
